SYSTEM_NAME: cyclin D1/cdk 4 enzyme (Homo sapiens, UniProt P11802)
Construct: made in house; host or cells: Sf9 insect cells, recombinant baculovirus
Sequence (P11802 whole entry, species assumed): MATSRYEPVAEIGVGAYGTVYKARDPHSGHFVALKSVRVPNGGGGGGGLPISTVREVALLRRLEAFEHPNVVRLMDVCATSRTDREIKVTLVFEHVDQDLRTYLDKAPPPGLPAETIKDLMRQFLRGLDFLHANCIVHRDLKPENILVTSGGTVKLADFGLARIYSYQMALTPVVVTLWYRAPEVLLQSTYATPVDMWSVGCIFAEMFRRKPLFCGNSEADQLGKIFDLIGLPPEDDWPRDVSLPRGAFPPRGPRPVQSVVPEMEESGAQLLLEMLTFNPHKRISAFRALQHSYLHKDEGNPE
Sequence (P24385 whole entry partner, species assumed): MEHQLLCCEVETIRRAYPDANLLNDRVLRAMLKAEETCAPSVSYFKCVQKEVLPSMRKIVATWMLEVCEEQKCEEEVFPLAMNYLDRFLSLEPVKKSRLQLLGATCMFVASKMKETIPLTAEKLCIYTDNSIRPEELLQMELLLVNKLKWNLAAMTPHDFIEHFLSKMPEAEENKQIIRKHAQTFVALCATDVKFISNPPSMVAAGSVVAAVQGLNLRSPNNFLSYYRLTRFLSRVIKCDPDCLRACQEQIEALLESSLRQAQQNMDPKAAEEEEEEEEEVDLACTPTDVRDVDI
MEASUREMENT_DESCRIPTION: CDK4 ELISA kinase assay (phospho-Rb ser 795 detection)
Assay type: biochemical
PARTICULARS: In Vitro Enzyme Assay, cyclin D1/cdk 4, read-out: CDK4 IC50
pIC50: −log10 of the molar value.
Lab note: anything with pIC50 at or over 5 counts as rule met; the rest go in rule not met.

Below, 3 molecules whose answers are already recorded.
{"MOLECULE": "COc1ccc(CNC=C2C(=O)NC(=O)c3ccc(-c4ccccc4)cc32)cc1O [Example 832]", "SYSTEM_NAME": "cyclin D1/cdk 4 enzyme (Homo sapiens, UniProt P11802)", "QUALITATIVE_LABEL": "rule met"}
{"MOLECULE": "CN1CCN(c2ccc(NC=C3C(=O)NC(=O)c4ccc(-c5cc6ccccc6s5)cc43)cc2)CC1 [Example 670]", "SYSTEM_NAME": "cyclin D1/cdk 4 enzyme (Homo sapiens, UniProt P11802)", "QUALITATIVE_LABEL": "rule not met"}
{"MOLECULE": "O=C1NC(=O)c2ccc(-c3ccoc3)cc2/C1=C/NCc1ccc(-c2ccccc2)c(O)c1 [Example 494]", "SYSTEM_NAME": "cyclin D1/cdk 4 enzyme (Homo sapiens, UniProt P11802)", "QUALITATIVE_LABEL": "rule met"}

# bool: pIC50 of COc1ccccc1-c1ccc2c(c1)C(=CNCc1ccc(O)c(O)c1)C(=O)NC2=O [Example 766] >= 5
rule met

And what about the molecule Nc1ccc(NC=C2C(=O)NC(=O)c3ccccc32)cc1 [Example 545] ?
rule not met

And what about the molecule NS(=O)(=O)c1ccc(CNC=C2C(=O)NC(=O)c3ccc(C=Cc4cnccn4)cc32)cc1 [Example 655] ?
rule met

And what about the molecule O=C1NC(=O)c2ccc(C=CCc3ccccc3)cc2C1=CNc1ccc(CN2CCCC2)cc1 [Example 622] ?
rule not met

And what about the molecule CCCN(CCC)Cc1ccc(NC=C2C(=O)NC(=O)c3ccccc32)cc1 [Example 614] ?
rule not met

And what about the molecule Cc1nnc(NS(=O)(=O)c2ccc(NC=C3C(=O)NC(=O)c4ccccc43)cc2)s1 [Example 549] ?
rule not met

And what about the molecule CC(=O)c1ccc(-c2ccc3c(c2)C(=CNc2ccc(N4CCN(C)CC4)cc2)C(=O)NC3=O)cc1 [Example 688] ?
rule met

And what about the molecule CCCS(=O)(=O)Nc1cccc(CNC=C2C(=O)NC(=O)c3ccccc32)c1 [Example 584] ?
rule not met

And what about the molecule N#CCc1ccc(NC=C2C(=O)NC(=O)c3ccc(-c4ccc(C(F)(F)F)cc4)cc32)cc1 [Example 709] ?
rule not met

And what about the molecule CN1CCN(c2ccc(NC=C3C(=O)NC(=O)c4ccc(-c5ccc(-c6ccccc6)cc5)cc43)cc2)CC1 [Example 696] ?
rule not met

And what about the molecule CN1CCN(c2ccc(NC=C3C(=O)NC(=O)c4ccc(C=CCCCO)cc43)cc2)CC1 [Example 797] ?
rule met

And what about the molecule N#CCc1ccc(NC=C2C(=O)NC(=O)c3ccc(-c4ccc(F)cc4)cc32)cc1 [Example 704] ?
rule met
